measuredTarget: Short transient receptor potential channel 4 (Mus musculus)
protocolSummary: potentiation of DAMGO-evoked TRPC4 calcium signal – cell-based, HEK293 TRPC4/mu-opioid, Fluo-4 calcium, EC20 DAMGO, dose response (AID 434941);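 also: calcium entry triggered by an EC20 dose of DAMGO at the co-expressed mu-opioid receptor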
conditions: HEK293 TRPC4/mu-opioid cells, Fluo-4 calcium fluorescence; series mostly up to 20 µM
Potency and affinity values are given separately. Activity calls are given as the source filed them.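 The calls were made as follows: active = earlier screen potentiator hit that boosts the TRPC4 ion channel at some dose, with a dose response; inactive = no potentiation, no dose response, or not a prior hit.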
propertyName: outcome

Observe how each entry below is paired with its result.
[
  {
    "compound": "CC1=C(C(=O)NCCN2CCN(C)CC2)C2(CCC(C)CC2)OC1=O (stereo not drawn)",
    "propertyName": "outcome",
    "measurement": "inactive"
  },
  {
    "compound": "COc1ccc(C(=O)N2CCN(c3c(C)cccc3C)CC2)cc1OC",
    "propertyName": "outcome",
    "measurement": "inactive"
  },
  {
    "compound": "CCN1CCN(c2c(Cl)cccc2NC(=O)c2cccs2)CC1",
    "propertyName": "outcome",
    "measurement": "inactive"
  },
  {
    "compound": "CSc1nnc(Cc2sc(-c3ccccc3)nc2-c2ccccc2)o1",
    "propertyName": "outcome",
    "measurement": "inactive"
  },
  {
    "compound": "Cc1cc(NC(=O)CCN2CCN(Cc3ccccc3)CC2)ccc1Br",
    "propertyName": "outcome",
    "measurement": "inactive"
  },
  {
    "compound": "CC12CC3(C)CC(C)(C1)CC(NC(=O)N1CCCC1)(C2)C3",
    "propertyName": "outcome",
    "measurement": "inactive"
  }
]

Entry under review: `Cc1c(N)c(C(C)(C)C)cc(C(C)(C)C)c1[N+](=O)[O-]` . Reported outcome? inactive

Entry under review: Cc1ccc(C(CNS(=O)(=O)c2ccc([N+](=O)[O-])cc2)N2CCN(C)CC2)cc1 (stereo not drawn) . Reported outcome? inactive

Entry under review: `O=C(COC(=O)c1ccccn1)Nc1nc(-c2ccccc2)cs1` . Reported outcome? inactive

Entry under review: `NS(=O)(=O)c1ccc(Oc2ccc(S(N)(=O)=O)cc2)cc1` . Reported outcome? inactive

Entry under review: `Cn1c(CN2CCN(c3ccccc3NS(C)(=O)=O)CC2)nc2ccccc21` . Reported outcome? inactive

* * *

measuredTarget: Short transient receptor potential channel 4 (Mus musculus) (UniProt Q9QUQ5)
Sequence (Q9QUQ5 whole entry, looked up): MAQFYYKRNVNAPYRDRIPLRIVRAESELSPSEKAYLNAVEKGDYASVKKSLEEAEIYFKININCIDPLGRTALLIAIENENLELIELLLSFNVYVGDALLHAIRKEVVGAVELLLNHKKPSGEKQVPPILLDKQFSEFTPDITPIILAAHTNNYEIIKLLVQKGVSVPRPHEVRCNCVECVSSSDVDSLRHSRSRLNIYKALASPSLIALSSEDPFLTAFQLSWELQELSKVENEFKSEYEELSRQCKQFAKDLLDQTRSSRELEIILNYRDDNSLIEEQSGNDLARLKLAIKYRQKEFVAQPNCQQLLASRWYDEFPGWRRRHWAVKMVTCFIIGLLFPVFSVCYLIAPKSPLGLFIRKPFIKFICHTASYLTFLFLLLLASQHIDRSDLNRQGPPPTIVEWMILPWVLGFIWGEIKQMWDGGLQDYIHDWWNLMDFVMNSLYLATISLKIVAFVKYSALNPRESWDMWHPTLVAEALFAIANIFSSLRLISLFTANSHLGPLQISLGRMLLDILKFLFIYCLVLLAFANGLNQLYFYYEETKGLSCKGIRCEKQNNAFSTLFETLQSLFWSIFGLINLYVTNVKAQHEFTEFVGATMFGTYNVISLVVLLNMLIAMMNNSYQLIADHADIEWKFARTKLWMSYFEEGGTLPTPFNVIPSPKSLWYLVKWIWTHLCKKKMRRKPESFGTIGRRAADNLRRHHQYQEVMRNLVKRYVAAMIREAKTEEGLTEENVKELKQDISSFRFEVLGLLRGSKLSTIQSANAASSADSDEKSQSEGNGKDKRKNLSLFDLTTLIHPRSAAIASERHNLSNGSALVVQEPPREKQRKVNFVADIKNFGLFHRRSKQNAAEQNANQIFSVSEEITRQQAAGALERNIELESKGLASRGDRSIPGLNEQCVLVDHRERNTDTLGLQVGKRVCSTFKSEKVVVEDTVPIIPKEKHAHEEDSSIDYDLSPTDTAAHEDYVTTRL
protocolSummary: blockers of DAMGO-evoked TRPC4 calcium flux – cell-based, second round, Fluo4, HEK293 TRPC4beta/mu-opioid, 1 µM, confirmation (AID 2637)
conditions: at 1 µM
The source made the active and inactive calls.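 How the source made its calls: active means calcium signal ratio cut to more than 3 SD under the fully stimulated control mean yet still positive, in both repeats and the primary screen; inactive means the rest.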
Mark one answer only. Choices: active, inactive

Here are 3 molecules together with their reported answers.
[
  {
    "molecule": "Cc1nn2c(N3CCN(C)CC3)c3c(nc2c1-c1ccccc1)CCCC3",
    "assignedLabel": "inactive"
  },
  {
    "molecule": "CCn1c(C)nc2cc(C(=O)N/N=C/c3cccc(O)c3O)ccc21",
    "assignedLabel": "inactive"
  },
  {
    "molecule": "CC1CCCCN1CCCNC(=O)c1nn(C)c2c1CSc1ccccc1-2 (stereo not drawn)",
    "assignedLabel": "inactive"
  }
]

Each molecule tested received a call. Report the one for `CN(C)CCCNc1nc(N)c([N+](=O)[O-])c(NCc2ccccc2)n1` . inactive

Each molecule tested received a call. Report the one for `CN1CCN(CCCNC(=O)CN2C(=O)COc3ccccc32)CC1` . inactive

Each molecule tested received a call. Report the one for Cc1cc2oc(C(=O)N(Cc3cccs3)C3CCS(=O)(=O)C3)cc(=O)c2cc1Cl (stereo not drawn) . inactive

Each molecule tested received a call. Report the one for COc1cccc(CN2CCNC(=O)C2CC(=O)N(C)CCc2ccccn2)c1 (stereo not drawn) . inactive

Each molecule tested received a call. Report the one for `COc1ccc(CC2(CO)CCN(C/C=C/c3ccccc3OC)CC2)cc1` . inactive

Each molecule tested received a call. Report the one for `O=Cc1c(N2CCCCC2)nc2ccccn2c1=O` . inactive

Each molecule tested received a call. Report the one for `CC(C)Oc1cc(N)c(Cl)cc1Cl` . inactive

Each molecule tested received a call. Report the one for COc1ccc(C)cc1N(C(=O)c1snc(C(N)=O)c1N)C(C(=O)NC1CCCCC1)c1ccc(C)o1 (stereo not drawn) . active

Each molecule tested received a call. Report the one for `Cn1c(-c2ccc(F)cc2)cnc1NCc1ccc(F)cc1F` . active

Each molecule tested received a call. Report the one for CCOC(=O)C1(CCOC)CCN(C(C)CCc2ccc(OC)cc2)CC1 (stereo not drawn) . inactive

Each molecule tested received a call. Report the one for O=C(NCC(c1cccs1)N1CCOCC1)c1ccc(Cl)c([N+](=O)[O-])c1 (stereo not drawn) . inactive

Each molecule tested received a call. Report the one for Cc1cc(NC(=O)C(C)SCC(=O)N(Cc2ccccc2)c2ccccc2)no1 (stereo not drawn) . inactive

Each molecule tested received a call. Report the one for CC(OC(=O)CNC(=O)c1ccccc1F)C(=O)Nc1nc(-c2ccccc2)cs1 (stereo not drawn) . inactive

Each molecule tested received a call. Report the one for `Fc1ccc(Nc2ncnc3sc4c(c23)CCC4)cc1` . inactive

Each molecule tested received a call. Report the one for `Cc1ccc(S(=O)(=O)c2cnc(-c3ccccc3)nc2N2CCN(C)CC2)cc1` . inactive

Each molecule tested received a call. Report the one for `Cc1ccc(C(=O)c2no[n+]([O-])c2C(=O)c2ccc(C)cc2)cc1` . inactive

* * *

measuredTarget: Short transient receptor potential channel 6 (Mus musculus) (UniProt Q61143)
Sequence (Q61143 whole entry, looked up): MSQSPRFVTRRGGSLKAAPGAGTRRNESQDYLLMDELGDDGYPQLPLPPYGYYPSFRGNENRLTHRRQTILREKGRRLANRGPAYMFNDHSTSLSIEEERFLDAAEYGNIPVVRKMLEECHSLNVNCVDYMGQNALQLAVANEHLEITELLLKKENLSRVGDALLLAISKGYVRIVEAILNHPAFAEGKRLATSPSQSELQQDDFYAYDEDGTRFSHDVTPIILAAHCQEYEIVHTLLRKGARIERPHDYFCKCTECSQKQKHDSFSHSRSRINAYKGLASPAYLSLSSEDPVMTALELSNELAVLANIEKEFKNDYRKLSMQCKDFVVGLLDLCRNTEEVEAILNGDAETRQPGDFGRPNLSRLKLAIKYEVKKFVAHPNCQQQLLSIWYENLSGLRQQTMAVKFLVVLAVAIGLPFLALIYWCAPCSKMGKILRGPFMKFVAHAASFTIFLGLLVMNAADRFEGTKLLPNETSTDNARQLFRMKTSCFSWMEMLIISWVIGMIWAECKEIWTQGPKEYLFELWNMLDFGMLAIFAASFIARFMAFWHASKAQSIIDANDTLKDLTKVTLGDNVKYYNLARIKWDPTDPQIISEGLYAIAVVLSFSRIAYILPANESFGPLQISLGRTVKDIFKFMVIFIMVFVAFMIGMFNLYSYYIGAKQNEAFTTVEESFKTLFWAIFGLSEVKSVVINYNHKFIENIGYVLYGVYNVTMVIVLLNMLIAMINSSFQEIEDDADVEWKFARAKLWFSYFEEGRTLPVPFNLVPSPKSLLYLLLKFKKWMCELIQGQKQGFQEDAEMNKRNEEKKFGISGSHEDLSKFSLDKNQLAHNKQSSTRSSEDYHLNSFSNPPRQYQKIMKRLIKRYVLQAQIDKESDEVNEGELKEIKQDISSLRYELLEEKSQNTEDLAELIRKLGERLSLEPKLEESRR
protocolSummary: positive modulators of mouse TRPC6 channel – HEK293 cells, membrane potential dye, duplicate, selectivity assay for TRPC4 potentiator project, confirmation (AID 434952)
conditions: HEK293 TRPC6, membrane potential dye fluorescence, at 10 µM, maximal acetylcholine added after compound; hits give high values
The source made the active and inactive calls.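 The calls were made as follows: active = compound raising the membrane signal above positive-control mean plus 3 SD in both repeats, and a primary screen hit; inactive = the rest.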
propertyName: potentiation, percent of control

Observe how each entry below is paired with its result.
[
  {
    "compound": "Oc1ccc(Nc2nc(N3CCCC3)c3ccccc3n2)cc1",
    "propertyName": "potentiation, percent of control",
    "measurement": "inactive"
  },
  {
    "compound": "Cc1[nH]nc(-c2ccc(O)cc2O)c1-c1ccc(Cl)cc1",
    "propertyName": "potentiation, percent of control",
    "measurement": "inactive"
  },
  {
    "compound": "CCOc1cc(CNCCCN2CCOCC2)cc(Br)c1OCc1ccccc1Cl",
    "propertyName": "potentiation, percent of control",
    "measurement": "inactive"
  },
  {
    "compound": "CN(C)CCOC(=O)C1(c2ccccc2)CCOCC1",
    "propertyName": "potentiation, percent of control",
    "measurement": "inactive"
  },
  {
    "compound": "Cc1ccc(-c2nn(-c3ccccc3)cc2C(=O)Nc2ccc(C(=O)O)cc2)cc1",
    "propertyName": "potentiation, percent of control",
    "measurement": "inactive"
  },
  {
    "compound": "CCC1CCCCN1Cc1nc2c(c(=O)n(C)c(=O)n2C)n1Cc1ccccc1 (stereo not given)",
    "propertyName": "potentiation, percent of control",
    "measurement": "inactive"
  }
]

Param readout= potentiation, percent of control; system= Short transient receptor potential channel 6 (Mus musculus) (UniProt Q61143); entry= `c1ccc(CN2CCN(c3nc4ccccc4s3)CC2)cc1` ; returns value. inactive

Param readout= potentiation, percent of control; system= Short transient receptor potential channel 6 (Mus musculus) (UniProt Q61143); entry= `CCN1CCN(C(=O)c2cc(-c3ccc(Cl)s3)nc3ccccc23)CC1` ; returns value. inactive

Param readout= potentiation, percent of control; system= Short transient receptor potential channel 6 (Mus musculus) (UniProt Q61143); entry= `CCc1ccccc1NC(=S)N(CCCN(C)C)Cc1cc2cc3c(cc2[nH]c1=O)OCO3` ; returns value. inactive

Param readout= potentiation, percent of control; system= Short transient receptor potential channel 6 (Mus musculus) (UniProt Q61143); entry= COc1ccc(C(CNC(=O)c2ccccc2SC)N(C)C)cc1 (stereo not given) ; returns value. inactive

* * *

measuredTarget: Short transient receptor potential channel 6 (Mus musculus) (UniProt Q61143)
protocolSummary: TRPC6 blockade by TRPC4 inhibitor hits – cell-based, HEK293, membrane potential dye, duplicate, selectivity assay for TRPC4 inhibitor project, confirmation (AID 434948)
conditions: HEK293 TRPC6, membrane potential dye fluorescence, at 10 µM, stimulated with maximal-effect acetylcholine
Active and inactive are the calls of the source.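 Rule for the calls: active = active in primary screen and both duplicates, each dropping signal beyond three positive-control SD with fluorescence still positive; inactive = the rest.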
Mark one answer only. Choices: active, inactive

Here are 4 compounds together with their reported answers.
[
  {
    "compound": "Cc1[nH]n(C)c(=O)c1C(=O)c1c(-c2c(Cl)cccc2Cl)noc1C",
    "measuredTarget": "Short transient receptor potential channel 6 (Mus musculus) (UniProt Q61143)",
    "assignedLabel": "inactive"
  },
  {
    "compound": "CCOC(=O)c1c(N)sc(C(O)(C(F)(F)F)C(F)(F)F)c1-c1ccccc1",
    "measuredTarget": "Short transient receptor potential channel 6 (Mus musculus) (UniProt Q61143)",
    "assignedLabel": "inactive"
  },
  {
    "compound": "Cc1ccc2cc(CN(CCCN3CCOCC3)C(c3nnnn3Cc3ccco3)C(C)C)c(=O)[nH]c2c1C (configuration not stated)",
    "measuredTarget": "Short transient receptor potential channel 6 (Mus musculus) (UniProt Q61143)",
    "assignedLabel": "inactive"
  },
  {
    "compound": "CCN1CCN(Cc2nc3c(c(=O)[nH]c(=O)n3C)n2Cc2ccccc2Cl)CC1",
    "measuredTarget": "Short transient receptor potential channel 6 (Mus musculus) (UniProt Q61143)",
    "assignedLabel": "inactive"
  }
]

Each compound tested received a call. Report the one for OC(COc1ccccc1)CN1C2=NCCCN2c2ccccc21 (configuration not stated) . inactive

Each compound tested received a call. Report the one for `CN(C)CCNC(=O)c1c(NC(=O)c2ccccc2)sc2c1CCCC2` . inactive

Each compound tested received a call. Report the one for `CCOc1ccc(-n2cnnn2)cc1S(=O)(=O)NCc1ccccc1` . inactive

Each compound tested received a call. Report the one for `Cc1cc(Br)ccc1OCCN1CCCC1` . inactive

Each compound tested received a call. Report the one for `COC(=O)c1ccc(COc2ccc(/C=N/Nc3nc(C)cc(=O)[nH]3)cc2)cc1` . inactive

Each compound tested received a call. Report the one for `O=[N+]([O-])c1cccc(CSc2nnc(Cc3ccccc3)n2-c2ccc(F)cc2)c1` . inactive

Each compound tested received a call. Report the one for `Cc1cc(N2CCN(C)CC2)n2cc(-c3ccc(F)cc3)nc2n1` . inactive

Each compound tested received a call. Report the one for `CC(C)n1c(NCc2c[nH]c3ccccc23)nc2ccccc21` . active

Each compound tested received a call. Report the one for `N#Cc1c(-c2cccs2)nc(SCc2ccc(Cl)cc2)[nH]c1=O` . inactive

Each compound tested received a call. Report the one for CN(CCc1ccccn1)C(=O)CC1C(=O)NCCN1Cc1ccc(-c2ccccc2)cc1 (configuration not stated) . inactive

Each compound tested received a call. Report the one for `CCn1cc(CN2CCC(n3nccc3NC(=O)CCOc3ccccc3)CC2)c(C)n1` . inactive

Each compound tested received a call. Report the one for `OCCN(CCO)c1ncnc2c1sc1nc(N3CCOCC3)c3c(c12)CCCC3` . inactive

Each compound tested received a call. Report the one for `CCOC(=O)C1(Cc2cccc(F)c2)CCN(Cc2cnn(CC)c2)CC1` . inactive

Each compound tested received a call. Report the one for `Cc1ccc2[nH]c3c(N4CCc5ccccc5C4)ncnc3c2c1` . inactive

Each compound tested received a call. Report the one for `Cc1ccc(OCC(=O)NNC(=S)NC(=O)c2ccc(Br)o2)c(C)c1` . inactive

Each compound tested received a call. Report the one for `CC(C)c1cccc(OCCCCN(C)C)c1` . inactive

Each compound tested received a call. Report the one for Cc1[nH]c2ccccc2c1C(=O)CN1C(=O)NC(C)(c2ccc(Cl)cc2Cl)C1=O (configuration not stated) . inactive

Each compound tested received a call. Report the one for Cc1ccccc1N(C(=O)c1snc(C(N)=O)c1N)C(C(=O)NC1CCCC1)c1ccco1 (configuration not stated) . inactive

Taken from PubChem BioAssay.
